Test: Pharmacokinetic study of CdG in rats after i.v. and p.o. administration
Format: in vivo, Male Sprague-Dawley rats
Settings: male, Sprague-Dawley, rat, plasma, iv, 1 mg/kg
Measured Property: MRT (min)
Answers are plain numbers, in min.

Lab note: "N#C[C@]1(CO)O[C@@H](n2cnc3c(=O)[nH]c(N)nc32)C[C@@H]1O" gave MRT of 29.4

###

Assay: Pharmacokinetic study of CdG in rats after i.v. and p.o. administration
Type: in vivo, Male Sprague-Dawley rats
Conditions: male, Sprague-Dawley, rat, plasma, po, 1 mg/kg
Measured Property: MRT (h)
Give bare numbers, in h.

Lab note: "N#C[C@]1(CO)O[C@@H](n2cnc3c(=O)[nH]c(N)nc32)C[C@@H]1O" gave MRT of 1.38
